Listed here are variants together with their documented abundance fitness.
B1: Arginine-glutamic acid dipeptide repeats protein, residues 502 to 543; numbered along this chain, Q9P2R6 (parent)
chain: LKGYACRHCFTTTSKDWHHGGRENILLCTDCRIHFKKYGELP

variants of: B1; assay: abundance fitness (aPCA) (normalised: wild type 0, dead -1); higher = more abundant; growth selection in yeast, the domain comes from the species named; settings: Homo sapiens
Respond using a number only.

Known abundance fitness results, listed for orientation:
>>> reported_result("T29C")
-0.096
>>> reported_result("K36E")
-0.012
>>> reported_result("D16C")
-0.633
>>> reported_result("S14P")
-0.361
>>> reported_result("E23Q")
-0.038
>>> reported_result("G20M")
-0.205
>>> reported_result("K2R")
-0.153
>>> reported_result("T12P")
-0.317

Here is the next item to consider.
## Input Return reported abundance fitness; argument: `Y4A`
## Output -0.198
